test system: PDC-DUC18828; assay: cell viability of compound + 1 nM pemigatinib relative to pemigatinib-only (DMSO) wells (fraction); PDC-DUC18828 is a patient-derived cholangiocarcinoma cell line; higher = less growth inhibition; details: first compound 1 µM; pemigatinib concentration 1 nM; 72 h
The full ranking holds about 1,900 compounds; the median of “cell viability of compound + 1 nM pemigatinib relative to pemigatinib-only (DMSO) wells” is about 0.95 nM, and the lowest 2% start at about 0.22 nM. Many of the other results were omitted from the sample, so the lowest values are more common in it than they were.
reportedProperty: cell viability

Test item Cc1[nH]c2ccccc2c1CCNCc1ccc(/C=C/C(=O)NO)cc1 [Panobinostat (LBH589)] + CCN1C(=O)N(c2c(F)c(OC)cc(OC)c2F)Cc2cnc3[nH]c(CN4CCOCC4)cc3c21 [pemigatinib] ; PDC-DUC18828; reported cell viability was 0.0639

Test item O=C(N/N=C/c1cc(O)c(O)cc1O)c1cc2ccccc2cc1O [Dyngo-4a] + CCN1C(=O)N(c2c(F)c(OC)cc(OC)c2F)Cc2cnc3[nH]c(CN4CCOCC4)cc3c21 [pemigatinib] ; PDC-DUC18828; reported cell viability was 0.924

Test item CCN(CC)Cc1ccc2cc(COC(=O)Nc3ccc(C(=O)NO)cc3)ccc2c1 [Givinostat (ITF2357)] + CCN1C(=O)N(c2c(F)c(OC)cc(OC)c2F)Cc2cnc3[nH]c(CN4CCOCC4)cc3c21 [pemigatinib] ; PDC-DUC18828; reported cell viability was 0.422

Test item Cc1[nH]c2ccccc2c1CCNC(=O)c1cccs1 + CCN1C(=O)N(c2c(F)c(OC)cc(OC)c2F)Cc2cnc3[nH]c(CN4CCOCC4)cc3c21 [pemigatinib] ; PDC-DUC18828; reported cell viability was 0.957

Test item CC1(C)C=C(CN2C/C(=C\c3ccc(F)cc3)C(=O)/C(=C/c3ccc(F)cc3)C2)C(C)(C)N1O + CCN1C(=O)N(c2c(F)c(OC)cc(OC)c2F)Cc2cnc3[nH]c(CN4CCOCC4)cc3c21 [pemigatinib] ; PDC-DUC18828; reported cell viability was 0.956
